method-description: P-glycoprotein substrates identified in KB-8-5-11 adenocarcinoma cell line, qHTS therapeutic library screen (AID 1346987); further: nearly all actives have a fitted effect of over 65% in size
condition-info: KB-8-5-11 (P-gp overexpressing) viability, CellTiter-Glo, 72 h; series mostly up to 44.5 µM
Results filed as inconclusive are left out. Active and inactive are the calls of the source. The call rests on the fitted dose curve; in most records, active means well fitted inhibition curve with a large enough effect; inconclusive means small, poorly fitted or top-dose-only effect; inactive means flat fitted curve, though single readings scatter.
Bench note: report the call from active, inactive

Solved entries (count: 6):
Query string: I would be grateful if you could indicate the recorded call for COCC(C(=O)OC1CC2CCC(C1)N2C)c1ccccc1 (stereo not given) .
Result string: inactive

Query string: What about this molecule? `CN1C[C@@H]2CN(c3ccc(-c4ccccc4)nn3)C[C@@H]2C1`
Result string: inactive

Query string: What about this molecule? CCC1NC(=O)C2C(Cl)C(Cl)CN2C(=O)C(CC)NC(=O)CC(c2ccccc2)NC(=O)C(CO)NC1=O (stereo not given)
Result string: inactive

Query string: What about this molecule? CCOC(=O)C1(c2ccccc2)CCCN(C)CC1 (stereo not given)
Result string: inactive

Query string: What about this molecule? C=C1C2(C)CC3C(C)(O)C4=CC(=O)OC(C)(C)C4=CCC3(C)C13C(=O)OC(C)C3(O)C2=O (stereo not given)
Result string: inactive

Query string: What about this molecule? Cc1sc2c(c1C)C(c1ccc(Cl)cc1)=NC(CC(=O)OC(C)(C)C)c1nnc(C)n1-2 (stereo not given)
Result string: active

More entries:
Query string: I would be grateful if you could indicate the recorded call for `O=C(O)CCCO` .
Result string: inactive

Query string: What about this molecule? COc1ccc2c3c([nH]c2c1)C(C=C(C)C)N1C(=O)C2CCCN2C(=O)C1C3 (stereo not given)
Result string: inactive

Query string: What about this molecule? `CCC(=O)O[C@](Cc1ccccc1)(c1ccccc1)[C@H](C)CN(C)C`
Result string: active

Query string: What about this molecule? CC1CCCCCC(=O)c2c(O)cc(O)cc2CC(=O)O1 (stereo not given)
Result string: inactive

###

Listed molecules paired with reported max response
Test system: HEK293
method-description: Cytotoxic Profiling of Annotated Libraries Using Quantitative High-Throughput Screening (AID 1296008); further: on the % scale 0 is the no-effect control and ±100 the full control effect; nearly all actives have a fitted effect of over 60% in size
condition-info: Five cell lines viability, CellTiter-Glo ATP luminescence, 48-72 h; active compounds read low
Protocol: Cell-based phenotypic screening is a commonly used approach to discover biological pathways, novel drug targets, chemical probes and high-quality hit-to-lead molecules. […] A pintool (Kalypsys) was used to transfer 23 nL of compound solution to the 1536-well assay plates. […] Plates were left at room temperature for 10 min before imaging the ATP-coupled luminescence using a ViewLux microplate imager (PerkinElmer, Waltham, MA).
Results filed as inconclusive are left out.
Give the quantity in %, number only.

Completed entries (count: 5):
Query string: Can you share its max response? I mean this molecule: CC1=CC2(O)/C=C/C(C)(O)C(O)C(O)/C=C/C(=O)OC23C(=O)NC(CC(C)C)C3C1C (stereo unspecified)
Result string: -8.27

Query string: What about this molecule? `C=C1[C@@]23C(=O)O[C@H](C)[C@]24O[C@@]2(C(=C)[C@]5(C=CC(=O)OC5(C)C)CC[C@]32C)[C@H](O)[C@@]1(C)OC4=O`
Result string: -10.4

Query string: What about this molecule? CO[C@H]1C[C@H](O[C@H]2CC[C@@]3(C)C(=CCC4C3CC[C@]3(C)[C@@H](C5=CC(=O)OC5)CC[C@]43O)C2)O[C@@H](C)[C@@H]1O[C@@H]1O[C@H](CO[C@@H]2O[C@H](CO)[C@@H](O)[C@H](O)[C@H]2O)[C@@H](O)[C@H](O)[C@H]1O (stereo partly specified)
Result string: -7.06

Query string: What about this molecule? `C[C@@H]1[C@H](O)[C@@H](C)/C=C/C=C/CC/C=C/C=C/C=C/C=C/[C@H](O[C@H]2O[C@@H](C)[C@H](O)[C@@H](N)[C@H]2O)C[C@@H]2O[C@](O)(C[C@@H](O)[C@H](O)CC[C@@H](O)C[C@@H](O)C[C@@H](O)CC(=O)O[C@H]1C)C[C@H](O)[C@H]2C(=O)O`
Result string: 0.0089

Query string: What about this molecule? CC1CCCC(O)CC(=O)Cc2cc(O)cc(O)c2C(=O)O1 (stereo unspecified)
Result string: 4.64

More entries:
Query string: Can you share its max response? I mean this molecule: O=C(CC1NCCC[C@H]1O)Cn1cnc2cc(Br)c(Cl)cc2c1=O (stereo partly specified)
Result string: -10.4

Query string: What about this molecule? `N#Cc1ccc([C@H]2CCCC[C@H]2O)cc1C(F)(F)F`
Result string: -11

Query string: What about this molecule? `Oc1ccc2c3c1O[C@H]1c4[nH]c5c(N=C=S)cccc5c4C[C@@]4(O)[C@@H](C2)N(CC2CC2)CC[C@]314`
Result string: -0.6

Query string: What about this molecule? CC1=CC2/C=C(\C)CCCC(O)/C=C/C(=O)OC23C(=O)NC(CC(C)C)C3C1C (stereo unspecified)
Result string: -0.114

Query string: What about this molecule? COC1C=CC23c4cc5c(cc4COC2(O)CN(C)C3C1)OCO5 (stereo unspecified)
Result string: -0.372

Query string: What about this molecule? COc1cc2c(cc1O)C1(C)CCC(O)C(C)(C)C1CC2=O (stereo unspecified)
Result string: -7.2

Query string: What about this molecule? `CC[C@H]1C2CC3[C@@H]4N(C)c5ccccc5[C@]45C[C@@H]([C@H]2[C@H]5O)N3[C@@H]1O`
Result string: 0.828

Query string: What about this molecule? CCC1NC(=O)C2C(Cl)C(Cl)CN2C(=O)C(CC)NC(=O)CC(c2ccccc2)NC(=O)C(CO)NC1=O (stereo unspecified)
Result string: -1.56

Query string: What about this molecule? `C[C@]12CC[C@H](O)C[C@@H]1CC[C@@H]1[C@@H]2CC[C@]2(C)C(=O)CC[C@@H]12`
Result string: -15.1

Query string: What about this molecule? `CN1C(=O)CN=C(c2ccccc2Cl)c2cc(Cl)ccc21`
Result string: -5.69

Query string: What about this molecule? `O=C(OC[C@H]1O[C@@H](Oc2ccc(O)cc2CO)[C@H](O)[C@@H](O)[C@@H]1O)c1ccccc1`
Result string: 0.485

###

Tested on: Zika virus NS2B-NS3 protease
method-description: Primary screen GU AMC qHTS for Zika virus inhibitors (AID 1347154);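 further: 0% = no-inhibitor control and -100% = no-enzyme control; nearly all actives have a fitted effect of over 70% in size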
condition-info: Zika NS2B-NS3 unlinked protease, AMC fluorogenic substrate; series mostly up to 54.1 µM
Results filed as inconclusive are left out. Active and inactive are the calls of the source. Calls come from the whole dose curve; as a rule, active = well fitted inhibition curve with a large enough effect; inconclusive = small, poorly fitted or top-dose-only effect; inactive = flat fitted curve, though single readings scatter.
assay-endpoint: activity change, negative = inhibition

Query string: Can you share its activity change, negative = inhibition? I mean this compound: CCOC(=O)CN1C(=O)CC(C[C@@H](O)C2C[C@@H](C)C[C@H](C)C2=O)CC1=O (stereo not given in full)
Result string: inactive

Query string: What about this compound? `COc1cccc2c1cc([N+](=O)[O-])c1c(C(=O)O)cc3c(c12)OCO3`
Result string: inactive

Query string: What about this compound? `CN(CCc1ccc(Cl)c(Cl)c1)[C@@H]1CCCC[C@@H]1N1CCCC1`
Result string: inactive

Query string: What about this compound? `O=C(Cc1ccc(Cl)c(Cl)c1)N1CCCC[C@H]1CN1CCCC1`
Result string: inactive

Next up:
Query string: Can you share its activity change, negative = inhibition? I mean this compound: `CCCCC/C=C\C/C=C\C/C=C\C=C\[C@H](CCCC(=O)O)OO`
Result string: 7.53% [at 0.59 µM] (inactive)

###

Tested on: TAB109
method-description: qHTS profiling for inhibitors of Plasmodium falciparum proliferation (AID 504749); further: nearly all actives have a fitted effect of over 60% in size
condition-info: P. falciparum in erythrocytes, SYBR Green DNA, 72 h; series mostly up to 28.7 µM
Inconclusive results are not listed. Calls of active or inactive are those of the source. Calls follow the shape of the dose curve; as a rule, active = well fitted inhibition curve with a large enough effect; inconclusive = small, poorly fitted or top-dose-only effect; inactive = flat fitted curve, though single readings scatter.
Bench note: report the call from class 1 = active, class 0 = inactive

Solved entries (count: 4):
Query string: I would be grateful if you could indicate the recorded call for `C[N+](C)(C)CC(=O)[O-]` .
Result string: class 0

Query string: What about this molecule? `CCN(CC)CCO[C@H]1CC[C@@]2(C)C(=CC[C@@H]3[C@H]2CC[C@]2(C)C(=O)CC[C@H]32)C1`
Result string: class 0

Query string: What about this molecule? `O=C(O)c1ccccc1-c1c2cc(Br)c(=O)cc-2oc2[c]([Hg])c(O)c(Br)cc12`
Result string: class 0

Query string: What about this molecule? CC(C)[C@@]1(NC(=O)[C@H]2CC3c4cccc5[nH]cc(c45)C[C@H]3N(C)C2)O[C@@]2(O)C3CCCN3C(=O)[C@@H](Cc3ccccc3)N2C1=O (stereo not given in full)
Result string: class 1

Now take the following molecule into account.
Query string: I would be grateful if you could indicate the recorded call for `CCCCCCCCCC[N+](C)(C)CCCCCCCCCC` .
Result string: class 1

###

method-description: qHTS for Inhibitors of the Functional Ribonucleoprotein Complex (vRNP) of Lassa (LASV) Arenavirus: LASV Primary Screen - GLuc reporter signal (AID 1347082); further: nearly all actives have a fitted effect of over 60% in size
condition-info: LASV minigenome vRNP, Gaussia luciferase reporter; series mostly up to 57.5 µM
Inconclusive results are not listed. Activity calls are given as the source filed them. The call rests on the fitted dose curve; tested in HEK293 reporter line.
Bench note: report the call from True for active, False for inactive

Solved entries (count: 3):
Query string: I would be grateful if you could indicate the recorded call for `Cc1ccc2nc(NC(=O)CSc3nc4c(c(=O)n3-c3ccccc3)SCC4)sc2c1` .
Result string: True

Query string: What about this compound? `NC(=NCCCCCCN=C(N)N=C(N)Nc1ccc(Cl)cc1)N=C(N)Nc1ccc(Cl)cc1`
Result string: False

Query string: What about this compound? `CCCCCCCCCC(=O)N[C@@H](Cc1c[nH]c2ccccc12)C(=O)N[C@H](CC(N)=O)C(=O)N[C@@H](CC(=O)O)C(=O)N[C@@H]1C(=O)NCC(=O)N[C@@H](CCCN)C(=O)N[C@@H](CC(=O)O)C(=O)N[C@H](C)C(=O)N[C@@H](CC(=O)O)C(=O)NCC(=O)N[C@H](CO)C(=O)N[C@@H]([C@@H](C)CC(=O)O)C(=O)N[C@@H](CC(=O)c2ccccc2N)C(=O)O[C@@H]1C`
Result string: False

More entries:
Query string: I would be grateful if you could indicate the recorded call for `CN(C)c1ccc(/C=C2\C(=O)Nc3ccccc32)cc1` .
Result string: False

Query string: What about this compound? `CC(C)CC(=O)O`
Result string: False

Query string: What about this compound? `CCCCCCCCCCCCCCC`
Result string: False

Taken from PubChem BioAssay (NCATS).
